- Target entity: CDK8/CycC (Homo sapiens, UniProt P49336)
- Sequence (P49336 whole entry): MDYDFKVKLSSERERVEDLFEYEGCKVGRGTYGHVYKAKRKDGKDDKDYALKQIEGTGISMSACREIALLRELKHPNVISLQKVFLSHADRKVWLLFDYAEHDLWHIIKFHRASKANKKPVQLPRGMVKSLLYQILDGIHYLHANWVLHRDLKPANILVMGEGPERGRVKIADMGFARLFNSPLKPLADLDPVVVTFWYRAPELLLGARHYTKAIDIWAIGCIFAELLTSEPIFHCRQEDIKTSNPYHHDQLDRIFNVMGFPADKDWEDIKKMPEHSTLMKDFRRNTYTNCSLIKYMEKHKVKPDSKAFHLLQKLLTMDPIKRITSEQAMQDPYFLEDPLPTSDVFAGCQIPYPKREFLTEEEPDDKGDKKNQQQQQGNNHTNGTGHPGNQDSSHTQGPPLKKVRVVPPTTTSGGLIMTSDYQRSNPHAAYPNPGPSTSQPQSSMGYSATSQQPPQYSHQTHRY
- Sequence (P24863 whole entry partner): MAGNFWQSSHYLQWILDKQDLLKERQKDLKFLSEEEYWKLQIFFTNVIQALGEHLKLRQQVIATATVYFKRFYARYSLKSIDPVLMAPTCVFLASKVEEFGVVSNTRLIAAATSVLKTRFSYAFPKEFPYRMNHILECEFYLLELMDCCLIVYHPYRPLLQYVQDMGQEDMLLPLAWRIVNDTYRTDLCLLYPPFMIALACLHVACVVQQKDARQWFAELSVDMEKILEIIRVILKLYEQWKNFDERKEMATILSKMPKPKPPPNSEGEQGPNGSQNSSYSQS
- Assay explanation: ProQinase WT Profiler radiometric protein kinase assay
- Condition details: non standard IC50 from 4 concentrations, kinase 8.3 nM, ATP 1 μM
Result type: IC50
Provide the measurement as a number trailed by its unit.

Need IC50 of Cc1cc(NC2CCN(C(=O)O[C@H]3CCN(C(=O)/C=C/CN(C)C)C3)CC2)n2ncc(C(C)C)c2n1 [Example 1] , thanks. 10.9 µM

* * *

- System: MHCC97H
- Assay explanation: Biomarker study proliferation (CellTiter-Glo)
- Type: cell-based
- Condition details: Homo sapiens, 168 h, read-out: Anti-proliferation effect IC50
- Method: Cancer cell lines are profiled to evaluate the anti-proliferative activity of a test compound in-vitro. […] After 15 minutes, luminescence is read using a plate reader. Data is analyzed in Excel and graphed in GraphPad Prism. Statistical analysis and p value is calculated using Mann-Whitney nonparameteric t tests using GraphPad Prism. […]
Result type: IC50
Provide the measurement as a number trailed by its unit.

Need IC50 of `Cc1cc(NC2CCN(C(=O)O[C@H]3CCN(C(=O)/C=C/CN(C)C)C3)CC2)n2ncc(C(C)C)c2n1` , thanks. 243 nM
